Attribution: PubChem BioAssay (NCI)

Parameter: TGI. Scope: all listed entries.
Test system: SK-MEL-28 melanoma
Assay: NCI tumour cell line growth inhibition, 48 h
OUTCOME_MEASURE: TGI

COMPOUND	DATA_VALUE
C[Si](C)(OCCS(=O)(=O)O)OC(=C1S(=O)(=O)OCCOS1(=O)=O)c1cccc2ccccc12	> 100 µM
COc1ccc(CNc2nc3cc(N)cc(N)c3nc2-c2ccccc2)cc1	32.3 µM
O=C(NCc1ccco1)c1ccc(NC2=C(Cl)C(=O)N(Cc3ccccc3)C2=O)cc1	43.4 µM
COc1cc(N(Cc2ccc3nc(OC)c(OC)nc3c2)Cc2ccc3nc(OC)c(OC)nc3c2)cc(OC)c1OC	> 50 µM
COc1cc(/C=C2\C(=O)N(C(=O)c3ccc(NC(C)=O)cc3)N=C2C)ccc1O	> 100 µM
N#C/C(=C/Sc1ccccc1)C(=O)O	> 100 µM
COc1ccc(OC)c(-c2cc(=O)c3c(OC)c(OC)c(OC)c(OC)c3o2)c1	> 100 µM
COC1CC(NC(=O)C(F)(F)F)C(OC(C)=O)C(C)O1 (stereo not given)	> 100 µM
Cc1ncsc1-c1ccc(CNC(=O)[C@@H]2C[C@@H](O)CN2C(=O)[C@@H](NC(=O)C2(C#N)CC2)C(C)(C)C)cc1	> 100 µM
CCOC(=O)c1ccc(Nc2nc3ccccc3nc2C(=O)OCC)cc1	> 100 µM
CC[C@@]1(O)C(=O)OCc2c1cc1n(c2=O)Cc2c-1nc1cc3c(cc1c2C)OCO3	> 100 µM
O=C1C2CN(Cc3ccccc3)CC1CN(CC1CC1)C2	> 100 µM
O=C(COc1ccc(Cl)c(Cl)c1)N(Cc1ccccc1)Cc1ccc[n+](Cc2ccc(Cl)cc2S(=O)(=O)F)c1	> 100 µM
C=C(C)[C@@H]1CC[C@]2(CO)CC[C@]3(C)[C@H](CC[C@@H]4[C@@]5(C)CCC(NCCc6ccc(O)cc6)C(C)(C)[C@@H]5CC[C@]43C)[C@@H]12 (stereo not given in full)	3 µM
O=S(=O)(Nc1cc(Cl)ccc1Cl)c1ccc(-c2cnc(C3CC3)o2)cc1	82.8 µM
CCOC(=O)C(NCc1cccc(C(F)(F)F)c1)(NC(=O)CC)C(F)(F)F (stereo not given)	> 100 µM
COc1cc(/C=C/C(=O)CC(=O)/C=C/c2ccc(O)c(OC)c2)ccc1O	15.9 µM
Cc1cc(O)cc(C)c1/C=C/c1cncc(-c2nn[nH]n2)c1	> 25 µM
Cc1ccc(-c2nc(-c3cnccn3)n(C3OC(CO)C(O)C(O)C3O)n2)cc1 (stereo not given)	> 100 µM
Cl/C(=C\C=Nc1ccc(I)cc1)c1ccc2ccccc2c1	46.2 µM
